Origin of the recorded values: patent EP1120414A1

Biological target: PKC α (Homo sapiens)
Construct: purchased CALBIOCHEM
Test: PKC enzyme assay (BIOTRAK Protein kinase C enzyme assay system, 32P-ATP phosphorylation of peptide […])
Type: biochemical
Settings: Protein Kinase C, Human Recombinant; test substance 1 nM-10 µM; 37°C, 15 minutes; read-out: Inhibition of PKC activity IC50 PKC α
pIC50: −log10 of the molar value.
Measured Metric: pIC50

[A] CCN(CCCn1cc(C2=C(Nc3ccccc3)C(=O)NC2=O)c2ccccc21)Cc1ccccc1
[B] CN(C)C1CCN(CCCn2cc(C3=C(Nc4ccccc4)C(=O)NC3=O)c3ccccc32)CC1
Problem: Of A and B , whose reported pIC50 is numerically smaller? Output the label that corresponds to your choice.
Solution: A

[1] O=C1NC(=O)C(c2cn(CCCCCN3CCC(O)CC3)c3ccccc23)=C1Nc1ccccc1
[2] CCN(CCCn1cc(C2=C(Nc3ccccc3)C(=O)NC2=O)c2ccccc21)Cc1ccncc1
Problem: Of 1 and 2 , whose reported pIC50 is numerically smaller? Output the label that corresponds to your choice.
Solution: 2

[1] Cc1cn(CCCn2cc(C3=C(Nc4cccc(Cl)c4)C(=O)NC3=O)c3ccccc32)cn1
[2] O=C1NC(=O)C(c2cn(CCCn3ccnc3)c3ccccc23)=C1Nc1ccccc1
Problem: Of 1 and 2 , whose reported pIC50 is numerically smaller? Output the label that corresponds to your choice.
Solution: 1
(1: 6.07, 2: 6.48)
